- measurementDescription: growth inhibitors of tim10-1 mutant yeast, primary screen, luminescence, uHTS (AID 463190);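 further: mutant grown at 25 °C; 0% = DMSO wells with yeast and 100% = wells holding no yeast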
- conditionContext: S. cerevisiae tim10-1 ts strain growth, BacTiter-Glo, 24 h; at 20 µM; hits give high values
Hit rate of the full screen: of about 330,000 compounds, about 7,300 (2.2%) were called active. The sample as a whole holds a higher share of actives than the screen did.
testReadout: inhibition

COc1ccc(-n2nc(C(=O)NCC(=O)N3CCN(c4ccccc4OC)CC3)c3ccccc3c2=O)c(OC)c1    1.49% (inactive)
CCCc1[nH]nc2c1C(c1ccc(OC)c(Cn3nc(C)c(Br)c3C)c1)C(C#N)=C(N)O2 (stereo not given)    11.3% (inactive)
CC/C(=N\O)C(C)(C)/[N+]([O-])=C/c1ccc(Br)cc1    5.1% (inactive)
CCCc1[nH]nc2c1C(c1ccc(Br)s1)C(C#N)=C(N)O2 (stereo not given)    83% (active)

Now look at this one.
Look at this molecule and give its reported inhibition. CC(CCN1CCN=C1N(C)C)c1ccccc1 (stereo not given)
-14.7% (inactive)

---

- measurementDescription: growth inhibitors of tim10-1 mutant yeast, primary screen, luminescence, uHTS (AID 463190);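 further: mutant grown at 25 °C; 0% = DMSO wells with yeast and 100% = wells holding no yeast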
- conditionContext: S. cerevisiae tim10-1 ts strain growth, BacTiter-Glo, 24 h; at 20 µM
About 7,300 (2.2%) of roughly 330,000 compounds were called active.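 Rule for the calls: active = inhibition of at least 40%; inactive = the rest.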 For the sample, actives were picked, then their nearest neighbours and some compounds at random.
The categories you may choose from are y (active), n (inactive)

O=C(CN(C(=O)c1csnn1)c1cccc(Cl)c1)NC1CCCC1    n
O=C(CN1CCN(c2ccc(F)cc2)CC1)Nc1ccccc1    n
Cc1ccc(NS(=O)(=O)c2c(C)[nH]c(=O)[nH]c2=O)cc1C    n
COc1ccc(Cn2c(=O)cc(C)[nH]c2=S)cc1    n
COc1ccc(N2CCN(C(=O)CCSCc3ccccc3F)CC2)cc1    y
C=CCn1c(SCc2c(C(=O)OC)sc(N)c2C(=O)OC)nnc1-c1ccc(Cl)cc1    n
O=C(CN1CCN(c2ccccc2)CC1)Nc1ccc(F)cc1    n
CCn1c(C)cc(=O)cc1-c1ccc(Cl)cc1    n

What call does the record list for Cc1cnc(C(=O)Oc2cccc(Cl)c2Cl)cn1 ?
n

Cool, now C=C(C)Cn1c(C)cc(C)c(S(=O)(=O)c2ccccc2C)c1=O
n

Cool, now O=C(CN1CCN(c2ccc(F)cc2)CC1)Nc1cccc(C(F)(F)F)c1
y

---

- measurementDescription: growth inhibitors of tim10-1 mutant yeast, primary screen, luminescence, uHTS (AID 463190);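 further: mutant grown at 25 °C; 0% = DMSO wells with yeast and 100% = wells holding no yeast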
- conditionContext: S. cerevisiae tim10-1 ts strain growth, BacTiter-Glo, 24 h; at 20 µM; hits give high values
About 7,300 (2.2%) of roughly 330,000 compounds were called active. The full list was thinned out, with actives kept by preference.
testReadout: inhibition

Cc1nc(SC(C)C)[nH]c(=O)c1Cc1ccccc1    18.7% (inactive)
COc1ccccc1Cn1c(C)nnc1-c1cnn(C)c1N    9.92% (inactive)
CSc1cc(C)n(-c2ccccc2C)c(=S)c1C(C)=O    -13.6% (inactive)
O=C(CNC(=O)c1cccs1)N/N=C/c1cccc(Br)c1    22% (inactive)
CN1CCC(CN)(N2CCN(c3ccccc3)CC2)CC1    16.4% (inactive)

Now look at this one.
Look at this compound and give its reported inhibition. O=C(N/N=C/c1cccc(Br)c1)c1ccc(N2CCCC2=O)cc1
-37.8% (inactive)
